These data points were gathered from ChEMBL document CHEMBL4396900.

- target desc: Histone deacetylase 8 (Homo sapiens)
- Sequence (Q9BY41 whole entry): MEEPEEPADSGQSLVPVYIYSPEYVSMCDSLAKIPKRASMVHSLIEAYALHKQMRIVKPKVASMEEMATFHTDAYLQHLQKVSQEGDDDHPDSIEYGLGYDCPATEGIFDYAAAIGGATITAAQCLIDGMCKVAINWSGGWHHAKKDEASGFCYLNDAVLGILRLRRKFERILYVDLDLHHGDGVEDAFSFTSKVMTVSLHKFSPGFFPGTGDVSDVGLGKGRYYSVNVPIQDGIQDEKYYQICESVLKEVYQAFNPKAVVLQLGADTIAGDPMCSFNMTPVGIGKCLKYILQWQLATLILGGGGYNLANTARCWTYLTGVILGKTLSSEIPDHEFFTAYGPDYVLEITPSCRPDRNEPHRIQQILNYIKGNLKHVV
- method: Inhibition of human recombinant HDAC8 using fluorogenic HDAC substrate measured after 60 mins by fluorimetry assay
metric name: IC50 (µM)

> print(dat)
                       substance.smiles  metric.name  unit.name  reported.value
1  COC(=O)c1ccc2ccccc2c1OCCCCCCCC(=O)NO         IC50         µM             1.6
